Measured values drawn from the supplement of paper PMC13207355 for this set.

test system: E28 (patient-derived glioblastoma stem cells of classical subtype); test: phenotypic distance (Euclidean, principal components) from DMSO controls (arbitrary units); higher = stronger morphological change; conditions: 3000 nM; exposure time: 72 h;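 note: cell Painting imaging in 384-well plates, CellProfiler features reduced to at least 20 principal components, Euclidean distance versus same-plate DMSO vehicle wells (0.1% v/v), median over six images per well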
Where a name gives a salt, the structure may show the parent alone.
Binary classification by phenotypic distance, with 0.8 as an inclusive lower bound for satisfied; all other cases are not satisfied.

compound	system_name	assigned_class
CCn1c(-c2nonc2N)nc2cnc(Oc3cccc(NC(=O)c4ccc(OCCN5CCOCC5)cc4)c3)cc21	E28	satisfied
CN1C(=O)[C@@]23C[C@]4([C@]56C[C@@]78SS[C@@](CO)(C(=O)N7[C@H]5Nc5ccccc56)N(C)C8=O)c5ccccc5N[C@@H]4N2C(=O)[C@]1(CO)SS3	E28	satisfied
OCCN1C[C@H](O)[C@@H](O)[C@H](O)[C@H]1CO	E28	not satisfied
O=C(Oc1cccc2cccnc12)c1ccccc1	E28	satisfied
CC(=O)CC(c1ccc([N+](=O)[O-])cc1)c1c(O)c2ccccc2oc1=O (stereo not drawn)	E28	satisfied
CN1C(=O)OC(C)(C)C1=O	E28	satisfied
CN[C@@H]1[C@@H](O)[C@@H](O[C@@H]2[C@@H](O)[C@H](O[C@H]3OC(CN)=CC[C@H]3N)[C@@H](N)C[C@H]2N)OC[C@]1(C)O [Sisomicin sulfate]	E28	not satisfied
